- System: Wild type
- assay-explanation: S. aureus survival, RN4220 and DeltatarO strains – OD600, teichoic acid synthesis inhibitors, primary screen (AID 463173)
- assay-setup: S. aureus RN4220 wild type/DeltatarO growth, OD600, 18 h, screened at 18.75 µg/mL (by protocol)
The campaign covered roughly 52,000 compounds. About 1,700 (3.3%) were called active. No stated cut-off is given here; in the data, active means survival mostly below about 52% (no sharp cut-off); inactive means mostly above about 56%. The entries come from a sample that favours actives as a whole.
Possible outcomes: Yes = active, No = inactive

compound | label-class
CCCNC(=O)c1cc2n(n1)CCCN(Cc1ccc(C)cc1)C2=O | No
CCOc1ccccc1N(C)C(=O)c1cc2c(s1)-c1ccccc1OC2 | Yes
Cc1ccccc1-c1nc(CS(=O)CC(=O)NCCc2ccc(Cl)cc2)c(C)o1 (stereo unspecified) | No
COCCCN1C(=O)c2[nH]nc(-c3ccccc3O)c2C1c1ccc(OC)cc1 (stereo unspecified) | No
CCOC(=O)c1nc(Nc2ccc(C(C)=O)cc2)c2ccccc2n1 | No
OCCNc1nc(-c2cccnc2)nc2ccccc12 | No
CCOC(=O)c1c(S(=O)(=O)N2CCC(C(=O)Nc3cccc(C#N)c3)CC2)c(C)n(C)c1C | No
COCCN1C(=O)c2[nH]nc(-c3cc(C)ccc3O)c2C1c1ccc(C(C)C)cc1 (stereo unspecified) | Yes
Cc1ccc(CN2CCCn3nc(C(=O)NC(C)C)cc3C2=O)cc1 | Yes
Oc1cccc(Nc2nc(-c3ccccc3)nc3ccccc23)c1 | No
CCCCN1C(=O)c2[nH]nc(-c3ccccc3O)c2C1c1cc(Br)c(O)c(OC)c1 (stereo unspecified) | Yes
COc1cccc(-c2nc(CS(=O)CC(=O)N3CCN(c4cccc(C(F)(F)F)c4)CC3)c(C)o2)c1 (stereo unspecified) | Yes
COc1ccccc1Nc1sc(C(=O)c2ccc3c(c2)OCO3)c(N)c1S(=O)(=O)c1ccccc1 | No
Oc1ccc(Nc2nc(-c3ccc(Cl)cc3)nc3ccccc23)cc1 | Yes
Cc1nc2ccn(Cc3ccco3)c(=O)c2cc1C(=O)NCc1ccc(Cl)cc1 | No
CCCCNC(=O)c1cc2n(n1)CCCN(Cc1ccc(C)cc1)C2=O | Yes
COCCN1C(=O)c2[nH]nc(-c3ccccc3O)c2C1c1ccc(Cl)c(Cl)c1 (stereo unspecified) | Yes
CCn1c(=O)c2cc(C(=O)NCc3ccc(F)cc3Cl)sc2c2ccccc21 | No
O=C1N(Cc2ccccc2Cl)c2ccccc2C1(O)c1c[nH]c2ccccc12 (stereo unspecified) | No
O=C1N(Cc2ccccc2)c2ccccc2C1(O)c1c[nH]c2ccccc12 (stereo unspecified) | No
Cc1ccc(-c2nc(CS(=O)CC(=O)N3CCN(c4ccc(Cl)cc4)CC3)c(C)o2)cc1 (stereo unspecified) | No
Cc1c(CNC(C)CCc2ccccc2)c(C(=O)O)c(C)n1Cc1ccc(F)cc1 (stereo unspecified) | No
Cc1cccc(C(=O)Nc2cccc(OCc3cc(=O)n4ccccc4n3)c2)c1 | No
COc1ccc(N2CCN(C(=O)c3cc4c(s3)-c3ccccc3OC4)CC2)cc1 | No
Cc1ccc(-c2nc(CS(=O)CC(=O)N3CCN(c4ccccc4)CC3)c(C)o2)cc1 (stereo unspecified) | No
Cc1ccccc1-c1nc(CS(=O)CC(=O)N2CCN(c3cc(Cl)ccc3C)CC2)c(C)o1 (stereo unspecified) | Yes
Cc1ccc(CN2C(=O)C(O)(c3c[nH]c4ccccc34)c3cc(Cl)ccc32)cc1 (stereo unspecified) | Yes
CCCCOc1cccc(C2c3c(-c4cc(C)ccc4O)n[nH]c3C(=O)N2CCOC)c1 (stereo unspecified) | No
Cc1ccc(CCNC(=O)c2cc3c(s2)-c2ccccc2OC3)cc1 | No
Fc1ccc(Nc2nc(SCc3ccc(Cl)cc3)nc3ccccc23)cc1 | No
COc1ccc(CCNC(=O)CCc2c(C)c3cc4c(C)coc4cc3oc2=O)cc1 | No
Cc1ccc(CCNC(=O)c2cc3c(s2)-c2c(C)cccc2OC3)cc1 | No
COc1cc(NC(=O)c2cc3c(s2)-c2ccccc2OC3)cc(OC)c1OC | No
Cc1cccc(Nc2nc(-c3ccccc3)nc3ccccc23)c1 | Yes
COc1ccc(CCC(=O)NCc2nc3cccnc3n2Cc2cccc(OC)c2)cc1 | No
COc1cccc(-c2nc(CS(=O)(=O)CC(=O)N3CCN(c4ccccc4)CC3)c(C)o2)c1 | No
CCCSCCCNC(=O)c1cc2n(n1)CCCN(Cc1ccc(C)cc1)C2=O | No
Cc1[nH]c2ccccc2c1C1(O)C(=O)N(Cc2ccccc2)c2ccc(Cl)cc21 (stereo unspecified) | No
Cc1cccc(CNC(=O)c2cnc3sc(N4CCOCC4)nn3c2=O)c1 | No
Cc1ccc(-c2nc(CS(=O)CC(=O)N3CCN(c4cccc(Cl)c4)CC3)c(C)o2)cc1 (stereo unspecified) | Yes
Cc1ccccc1CN1C(=O)C(O)(c2c[nH]c3ccccc23)c2cc(Cl)ccc21 (stereo unspecified) | Yes
